System: MDA-MB-436 cells
Assay: Cell proliferation assay (MDA-MB-436)
Type: cell-based
Conditions: Homo sapiens, 168 h, 7 days
pIC50: −log10 of the molar value.
Please provide measured pIC50 for the entries that follow.

Field: example entries. Status: answers known.
* O=C(N[C@@H](C(=O)N1CCC(OC2CCN(CC(=O)N3CCN(C(=O)c4cc(Cc5n[nH]c(=O)c6ccccc56)ccc4F)CC3)CC2)CC1)C1CCCCC1)c1cccc(C2CCCN(C(=O)C34CC(F)(C3)C4)C2)c1F (stereo partly drawn) | > 8.00
* CC(C)(C)OC(=O)N[C@@H](C(=O)N1CCC(OC2CCN(CC(=O)N3CCN(C(=O)c4cc(Cc5n[nH]c(=O)c6ccccc56)ccc4F)CC3)CC2)CC1)C1CCCCC1 | > 8.00
* CCc1cccc(-c2cnc(C(=O)N3CCC(OC4CCN(CC(=O)N5CCN(C(=O)c6cc(Cc7n[nH]c(=O)c8ccccc78)ccc6F)CC5)CC4)CC3)c(NC(C)=O)c2)c1 | > 8.00
* CCc1cccc(-c2cnc(C(=O)NC34CCC(CN5CCN(CC(=O)N6CCN(C(=O)c7cc(Cc8n[nH]c(=O)c9ccccc89)ccc7F)CC6)CC5)(CC3)OC4)c(N)c2)c1 | > 8.00
* O=C(N[C@@H](C(=O)N1CCC(OC2CCN(CC(=O)N3CCN(C(=O)c4cc(Cc5n[nH]c(=O)c6ccccc56)ccc4F)CC3)CC2)CC1)C1CCCCC1)c1cccc(C2CCCN(C(=O)C34CC(C3)C4)C2)c1F (stereo partly drawn) | 6.00 to 7.00

Take each entry in turn and give its pIC50.
1. CCOc1cc(OC)ccc1CNCC(=O)N1CCCC(c2cccc(C(=O)N[C@@H](C(=O)NCc3cn(CCNCC(=O)N4CCN(C(=O)c5cc(Cc6n[nH]c(=O)c7ccccc67)ccc5F)CC4)nn3)C3CCCCC3)c2)C1 (stereo partly drawn)
2. O=C(CN1CCN(C[C@@H]2C[C@@H]3CC[C@H]2CN3C(=O)c2c(F)cc(-c3ccccc3)cc2F)CC1)N1CCN(C(=O)c2cc(Cc3n[nH]c(=O)c4ccccc34)ccc2F)CC1
3. CC(C)(C)OC(=O)N[C@@H](C(=O)N1CC[C@H](OC2CCN(CC(=O)N3CCN(C(=O)c4cc(Cc5n[nH]c(=O)c6ccccc56)ccc4F)CC3)CC2)C1)C1CCCCC1

stdout:
1. 5.00 to 6.00
2. > 8.00
3. > 8.00

----------
Molecular target: UniProt P09874
Sequence (P09874 whole entry): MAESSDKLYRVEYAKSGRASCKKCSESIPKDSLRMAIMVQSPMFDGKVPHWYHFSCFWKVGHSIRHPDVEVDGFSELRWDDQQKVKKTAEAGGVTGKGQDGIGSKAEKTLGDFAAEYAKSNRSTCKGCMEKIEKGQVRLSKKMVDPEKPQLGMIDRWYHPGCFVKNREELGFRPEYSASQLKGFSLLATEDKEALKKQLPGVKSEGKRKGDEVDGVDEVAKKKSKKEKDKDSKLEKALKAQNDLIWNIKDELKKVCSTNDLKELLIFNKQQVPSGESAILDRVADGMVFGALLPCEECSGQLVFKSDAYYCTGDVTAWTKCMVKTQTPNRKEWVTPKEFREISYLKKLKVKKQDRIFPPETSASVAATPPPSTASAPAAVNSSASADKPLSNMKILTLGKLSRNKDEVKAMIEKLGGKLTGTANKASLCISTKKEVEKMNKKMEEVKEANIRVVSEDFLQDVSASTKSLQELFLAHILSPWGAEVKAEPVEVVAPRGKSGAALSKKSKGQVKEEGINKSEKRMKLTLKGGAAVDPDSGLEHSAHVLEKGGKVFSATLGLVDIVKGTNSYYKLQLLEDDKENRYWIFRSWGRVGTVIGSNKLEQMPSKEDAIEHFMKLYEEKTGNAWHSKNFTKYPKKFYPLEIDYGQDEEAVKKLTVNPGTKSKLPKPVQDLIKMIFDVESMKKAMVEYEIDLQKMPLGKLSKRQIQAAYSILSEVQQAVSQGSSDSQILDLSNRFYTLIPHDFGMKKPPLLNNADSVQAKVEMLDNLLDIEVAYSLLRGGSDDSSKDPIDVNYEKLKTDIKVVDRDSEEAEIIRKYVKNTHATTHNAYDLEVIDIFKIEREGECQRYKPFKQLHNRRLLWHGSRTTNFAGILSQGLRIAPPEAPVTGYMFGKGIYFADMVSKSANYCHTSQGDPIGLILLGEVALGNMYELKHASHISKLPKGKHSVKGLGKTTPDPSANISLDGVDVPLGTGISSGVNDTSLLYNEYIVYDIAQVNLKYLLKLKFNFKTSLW
Assay: PARP trapping assay in U2OS cells
Format: cell-based
Parameters: endogenous in cells; host or cells: U2OS
Conditions: U2OS cells, MMS, 4 hrs; read-out: PARP Trapping (U2OS)
Please provide measured IC50 for the entries that follow.

Field: example entries. Status: answers known.
* CCc1cccc(-c2cnc(C(=O)NCCOCCNCC(=O)N3CCN(C(=O)c4cc(Cc5n[nH]c(=O)c6ccccc56)ccc4F)CC3)c(C)c2)c1 | 100 to 1000 nM
* Cc1sc(CN2CCCC2c2nnc3n2CCCCC3)nc1C12CC(C(=O)NCCOCCOCCNCC(=O)N3CCN(C(=O)c4cc(Cc5cccc6c(=O)[nH]ncc56)ccc4F)CC3)(C1)C2 (centres unmarked) | > 10000 nM
* CCc1cccc(-c2cnc(C(=O)N3CCC(CN4CCN(CC(=O)N5CCN(C(=O)c6cc(Cc7n[nH]c(=O)c8ccccc78)ccc6F)CC5)CC4)CC3)c(NC(C)=O)c2)c1 | 100 to 1000 nM
* CCOc1cc(OC)ccc1CNCC(=O)N1CCC[C@H](c2cccc(C(=O)N[C@@H](C(=O)N3CCC(CN4CCN(CC(=O)N5CCN(C(=O)c6cc(Cc7n[nH]c(=O)c8ccccc78)ccc6F)CC5)CC4)CC3)C3CCCCC3)c2)C1 | 10 to 100 nM

Now for a further compound.
stdin: # get_value(readout= IC50, system= UniProt P09874) for O=C(N[C@@H](C(=O)N1CCN(CC23CCC(C(=O)N4CCN(C(=O)c5cc(Cc6n[nH]c(=O)c7ccccc67)ccc5F)CC4)(CC2)CO3)CC1)C1CCCCC1)c1cccc([C@H]2CCCN(C(=O)CNC3CC3)C2)c1 (racemic)
stdout: < 10 nM
